settings: PAMPA, pH 7.4
Where a SMILES comes first, the peptide text is derived from it. [ ]: non-standard residue; d: D form. Arg(ω,ω'-(C6H13OCO)2) = CCCCCCOC(=O)N=C(NCCC[C@H](N)C(=O)O)NC(=O)OCCCCCC
measurement-type: Permeability, replicate 1 (Log10[10^−6 cm/s])
Write it as a number; the unit Log10[10^−6 cm/s] goes unstated.

// Permeability, replicate 1 lookup, molecule = CCCCCCOC(=O)N=C(NCCC[C@@H]1NC(=O)[C@H](Cc2ccccc2)NC(=O)[C@@H]2CCCN2C(=O)[C@@H]2CCCN2C(=O)[C@H](CC(C)C)NC(=O)[C@H](C)NC(=O)[C@H](CC(C)C)NC(=O)[C@H](CC(=O)OC)NC(=O)CNC1=O)NC(=O)OCCCCCC [AR372] (cyclo(ALPPF[Arg(ω,ω'-(C6H13OCO)2)]GD(OMe)L)) , result: −6.2

---

settings: PAMPA, pH 7.4
Where a SMILES comes first, the peptide text is derived from it. [ ]: non-standard residue; d: D form. Arg(ω,ω'-(C6H13OCO)2) = CCCCCCOC(=O)N=C(NCCC[C@H](N)C(=O)O)NC(=O)OCCCCCC
Entries whose Mass retention is below 10% take Condition met; entries at or above 10% take Condition not met.

molecule	qualitative-label
CCCCCCOC(=O)N=C(NCCC[C@@H]1NC(=O)[C@H](Cc2ccccc2)NC(=O)[C@@H]2CCCN2C(=O)[C@@H]2CCCN2C(=O)[C@H](CC(C)C)NC(=O)[C@H](C)NC(=O)[C@H](CC(C)C)NC(=O)[C@H](CC(=O)OC)NC(=O)CNC1=O)NC(=O)OCCCCCC [AR372] (cyclo(ALPPF[Arg(ω,ω'-(C6H13OCO)2)]GD(OMe)L))	Condition not met
C[C@@H]1NC(=O)[C@H](C)NC(=O)[C@@H](C)N(C)C(=O)[C@H](C)N(C)C(=O)[C@H](C)NC(=O)[C@H](C)NC1=O	Condition not met
CC(C)C[C@@H]1NC(=O)[C@H](CC(=O)O)NC(=O)CNC(=O)[C@H](CCCNC(=N)N)NC(=O)[C@H](Cc2ccccc2)NC(=O)[C@@H]2CCCN2C(=O)[C@@H]2CCCN2C(=O)[C@H](CC(C)C)NC(=O)[C@H](C)NC1=O [OM1186] (cyclo(RGDLALPPF))	Condition not met
CCCCCCOC(=O)N=C(NCCC[C@@H]1NC(=O)[C@H](C(C)C)N(C)C(=O)[C@@H](Cc2ccccc2)NC(=O)[C@H](CC(=O)OC)NC(=O)CNC1=O)NC(=O)OCCCCCC	Condition not met

API: the following record is the query input.
Incoming: Hello, is Mass retention of the following molecule strictly smaller than 10%? CC(C)C[C@@H]1NC(=O)CNC(=O)[C@@H]2CCCN2C(=O)[C@@H]2CCCN2C(=O)[C@H](CC(C)C)NC(=O)[C@H](CC(=O)O)NC(=O)CNC(=O)[C@H](CCCNC(=N)N)NC1=O [FRX068] (cyclo(RGDLPPGL))
Outgoing: Condition met

---

Below is a list of entries, each paired with its recorded Papp B→A at 90 min, 10 μM value.
experiment: in vitro; conditions: human, Caco-2, pH 7.4, Papp (BA), Mean

compound	measurement-type	result
CC(C)NCC(O)COc1cccc2ccccc12 (centres unmarked)	Papp B→A at 90 min, 10 μM	15.3 ×10⁻⁶ cm/s

Proceeding to the next compound to report its Papp B→A at 90 min, 10 μM.
// Papp B→A at 90 min, 10 μM lookup, compound = C[C@H]1O[C@@H](O[C@H]2[C@@H](O)C[C@H](O[C@H]3[C@@H](O)C[C@H](O[C@H]4CC[C@@]5(C)[C@H](CC[C@@H]6[C@@H]5C[C@@H](O)[C@]5(C)[C@@H](C7=CC(=O)OC7)CC[C@]65O)C4)O[C@@H]3C)O[C@@H]2C)C[C@H](O)[C@@H]1O , result: 12 ×10⁻⁶ cm/s

---

settings: Caco-2, Papp (BA), Mean
Where a SMILES comes first, the peptide text is derived from it. [ ]: non-standard residue; d: D form. Arg(ω,ω'-(C6H13OCO)2) = CCCCCCOC(=O)N=C(NCCC[C@H](N)C(=O)O)NC(=O)OCCCCCC
measurement-type: Papp B→A (×10⁻⁶ cm/s)
Write it as a number; the unit ×10⁻⁶ cm/s goes unstated.

Check out these entries, answers already filled in.
molecule	Papp B→A, ×10⁻⁶ cm/s
CC(C)C[C@@H]1NC(=O)[C@H](CC(=O)O)NC(=O)CNC(=O)[C@H](CCCNC(=N)N)NC(=O)[C@H](Cc2ccccc2)NC(=O)[C@@H]2CCCN2C(=O)[C@@H]2CCCN2C(=O)[C@H](CC(C)C)NC(=O)[C@H](C)NC1=O [OM1186] (cyclo(RGDLALPPF))	0.2
C[C@@H]1NC(=O)[C@H](C)NC(=O)[C@@H](C)N(C)C(=O)[C@H](C)N(C)C(=O)[C@H](C)NC(=O)[C@H](C)NC1=O	0.1
CCCCCCOC(=O)N=C(NCCC[C@@H]1NC(=O)[C@H](Cc2ccccc2)NC(=O)[C@@H]2CCCN2C(=O)[C@@H]2CCCN2C(=O)[C@H](CC(C)C)NC(=O)[C@H](C)NC(=O)[C@H](CC(C)C)NC(=O)[C@H](CC(=O)OC)NC(=O)CNC1=O)NC(=O)OCCCCCC [AR372] (cyclo(ALPPF[Arg(ω,ω'-(C6H13OCO)2)]GD(OMe)L))	0.4

Proceeding to the next molecule to report its Papp B→A.
// Papp B→A lookup, molecule = CC(C)C[C@@H]1NC(=O)CNC(=O)[C@@H]2CCCN2C(=O)[C@@H]2CCCN2C(=O)[C@H](CC(C)C)NC(=O)[C@H](CC(=O)O)NC(=O)CNC(=O)[C@H](CCCNC(=N)N)NC1=O [FRX068] (cyclo(RGDLPPGL)) , result: 0.3

---

assay: in vitro; conditions: human, Caco-2, pH 7.4, Papp (AB), replicate 2
measurement-type: Papp A→B at 90 min, 10 μM

// Papp A→B at 90 min, 10 μM lookup, compound = CC(C)NCC(O)COc1cccc2ccccc12 (stereo not shown) , result: 24.1 ×10⁻⁶ cm/s

---

conditions: PAMPA, pH 7.4
Where a SMILES comes first, the peptide text is derived from it.
Below is a list of entries, each paired with its recorded Permeability, replicate 3 value.

compound	Permeability, replicate 3
CC(C)C[C@@H]1NC(=O)[C@H](CC(=O)O)NC(=O)CNC(=O)[C@H](CCCNC(=N)N)NC(=O)[C@H](Cc2ccccc2)NC(=O)[C@@H]2CCCN2C(=O)[C@@H]2CCCN2C(=O)[C@H](CC(C)C)NC(=O)[C@H](C)NC1=O [OM1186] (cyclo(RGDLALPPF))	<−7 Log10[10^−6 cm/s]
CC(C)C[C@@H]1NC(=O)CNC(=O)[C@@H]2CCCN2C(=O)[C@@H]2CCCN2C(=O)[C@H](CC(C)C)NC(=O)[C@H](CC(=O)O)NC(=O)CNC(=O)[C@H](CCCNC(=N)N)NC1=O [FRX068] (cyclo(RGDLPPGL))	<−7 Log10[10^−6 cm/s]

// Permeability, replicate 3 lookup, compound = CCCCCCOC(=O)N=C(N)NCCC[C@@H]1NC(=O)[C@@H](C(C)C)N(C)C(=O)[C@H](C)N(C)C(=O)[C@H](C)NC(=O)[C@H](CC(=O)OC)NC(=O)CNC1=O [#29P-Hoc] , result: <−7 Log10[10^−6 cm/s]

---

target: human αvβ6-Integrin (Homo sapiens, UniProt P06756+P18564, DEL708-788); construct: purchased R&D; assay: Integrin binding assay (solid-phase), αvβ6
Sequence (P06756 31-992 limits assumed, stated change not applied): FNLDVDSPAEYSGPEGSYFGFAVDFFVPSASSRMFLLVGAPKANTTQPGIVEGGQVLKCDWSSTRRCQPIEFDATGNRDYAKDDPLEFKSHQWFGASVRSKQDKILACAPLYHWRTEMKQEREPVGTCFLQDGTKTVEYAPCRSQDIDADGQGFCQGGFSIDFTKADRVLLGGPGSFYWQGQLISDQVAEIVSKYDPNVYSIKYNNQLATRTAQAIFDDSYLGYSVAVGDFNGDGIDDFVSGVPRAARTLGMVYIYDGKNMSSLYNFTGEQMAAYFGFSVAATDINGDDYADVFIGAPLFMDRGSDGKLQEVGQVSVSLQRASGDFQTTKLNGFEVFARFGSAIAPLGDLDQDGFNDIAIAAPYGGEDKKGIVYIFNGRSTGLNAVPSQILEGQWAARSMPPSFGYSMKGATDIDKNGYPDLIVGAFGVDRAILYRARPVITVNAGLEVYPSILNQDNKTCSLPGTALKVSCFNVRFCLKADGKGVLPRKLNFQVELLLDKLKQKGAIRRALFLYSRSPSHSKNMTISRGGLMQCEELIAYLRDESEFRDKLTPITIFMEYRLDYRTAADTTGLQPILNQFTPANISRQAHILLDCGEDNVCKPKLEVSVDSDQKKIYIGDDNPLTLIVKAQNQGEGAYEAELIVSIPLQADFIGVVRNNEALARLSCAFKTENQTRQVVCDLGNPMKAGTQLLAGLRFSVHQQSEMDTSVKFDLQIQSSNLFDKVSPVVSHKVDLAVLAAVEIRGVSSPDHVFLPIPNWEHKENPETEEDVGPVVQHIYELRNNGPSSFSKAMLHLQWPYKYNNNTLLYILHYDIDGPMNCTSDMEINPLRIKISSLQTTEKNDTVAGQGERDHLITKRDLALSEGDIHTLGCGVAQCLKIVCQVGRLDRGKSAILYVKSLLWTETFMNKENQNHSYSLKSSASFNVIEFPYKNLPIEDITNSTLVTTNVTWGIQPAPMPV
Sequence (P18564 22-707 limits assumed, stated change not applied): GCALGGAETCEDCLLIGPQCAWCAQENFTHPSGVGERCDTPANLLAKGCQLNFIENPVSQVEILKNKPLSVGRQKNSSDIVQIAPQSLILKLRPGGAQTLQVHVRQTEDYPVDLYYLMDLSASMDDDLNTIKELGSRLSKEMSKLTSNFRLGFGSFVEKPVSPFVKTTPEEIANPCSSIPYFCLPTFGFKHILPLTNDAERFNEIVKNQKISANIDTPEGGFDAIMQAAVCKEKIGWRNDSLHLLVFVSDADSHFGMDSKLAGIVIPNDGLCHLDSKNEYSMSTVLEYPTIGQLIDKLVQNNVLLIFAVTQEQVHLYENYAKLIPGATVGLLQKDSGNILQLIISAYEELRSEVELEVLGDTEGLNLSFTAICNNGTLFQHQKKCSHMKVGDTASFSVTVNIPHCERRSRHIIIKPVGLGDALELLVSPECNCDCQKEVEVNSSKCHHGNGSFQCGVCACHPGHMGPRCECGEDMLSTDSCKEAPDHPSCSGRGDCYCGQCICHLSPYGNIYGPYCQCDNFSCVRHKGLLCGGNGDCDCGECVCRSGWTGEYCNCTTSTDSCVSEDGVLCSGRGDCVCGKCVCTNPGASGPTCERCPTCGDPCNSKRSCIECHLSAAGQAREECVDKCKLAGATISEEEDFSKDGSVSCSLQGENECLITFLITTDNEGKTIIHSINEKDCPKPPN
pIC50: −log10 of the molar value.
measurement-type: pIC50

// pIC50 lookup, compound = C[C@@H]1NC(=O)[C@H](C)N(C)C(=O)[C@H](C)NC(=O)[C@H](CC(=O)O)N(C)C(=O)CNC(=O)[C@@H](CCCNC(=N)N)NC1=O [compound 17, c(rG*DA*AA)] , result: < 5.00

---

conditions: Caco-2, Papp (BA), replicate 2
Where a SMILES comes first, the peptide text is derived from it. [ ]: non-standard residue; d: D form. Arg(ω,ω'-(C6H13OCO)2) = CCCCCCOC(=O)N=C(NCCC[C@H](N)C(=O)O)NC(=O)OCCCCCC
Below is a list of entries, each paired with its recorded Papp B→A value.
Write it as a number; the unit nm/s goes unstated.

molecule	Papp B→A (nm/s)
CC(C)C[C@@H]1NC(=O)[C@H](CC(=O)O)NC(=O)CNC(=O)[C@H](CCCNC(=N)N)NC(=O)[C@H](Cc2ccccc2)NC(=O)[C@@H]2CCCN2C(=O)[C@@H]2CCCN2C(=O)[C@H](CC(C)C)NC(=O)[C@H](C)NC1=O [OM1186] (cyclo(RGDLALPPF))	2
CCCCCCOC(=O)N=C(NCCC[C@@H]1NC(=O)[C@H](Cc2ccccc2)NC(=O)[C@@H]2CCCN2C(=O)[C@@H]2CCCN2C(=O)[C@H](CC(C)C)NC(=O)[C@H](C)NC(=O)[C@H](CC(C)C)NC(=O)[C@H](CC(=O)OC)NC(=O)CNC1=O)NC(=O)OCCCCCC [AR372] (cyclo(ALPPF[Arg(ω,ω'-(C6H13OCO)2)]GD(OMe)L))	5
CC(C)C[C@@H]1NC(=O)CNC(=O)[C@@H]2CCCN2C(=O)[C@@H]2CCCN2C(=O)[C@H](CC(C)C)NC(=O)[C@H](CC(=O)O)NC(=O)CNC(=O)[C@H](CCCNC(=N)N)NC1=O [FRX068] (cyclo(RGDLPPGL))	3

Proceeding to the next molecule to report its Papp B→A.
// Papp B→A lookup, molecule = C[C@@H]1NC(=O)[C@H](C)NC(=O)[C@@H](C)N(C)C(=O)[C@H](C)N(C)C(=O)[C@H](C)NC(=O)[C@H](C)NC1=O , result: 1

The values you see were collected from patent US20200323962A1.
